- Test system: Candida albicans
- Assay method text: Antifungal activity against Candida albicans FH2173 measured after 48 hrs by BacTiter-glo assay
- Type: functional
Observable: MIC (µg/mL)

Molecule: CCCC1=[N+](CCc2ccccc2)C(C)(CCC(=O)c2ccccc2N)C(NCCc2ccccc2)=C1 (stereo unspecified)
MIC, µg/mL: 16

I. CCCc1cc2n(CCc3ccccc3)cc(-c3ccccc3)cc-2[n+]1CCc1ccccc1
II. CCCc1c(C)cn(CCc2ccccc2)c2cc(CCC)[n+](CCc3ccccc3)c1-2
Req: Dear colleague, could you let me know whether I or II has the lower recorded MIC? Thanks. Record your answer as the label of the chosen record.
Resp: I

The reported measurements were obtained from ChEMBL document CHEMBL5120818.
